# test-description: C(compound) was tested for percent […] bioavailability in rat
# Assay type: ADME, organism-based
# test-context: in vivo, po
parameter: bioavailability (%)
Numbers only here, please. The scale is %.

Read off the recorded bioavailability for CCCC[C@H](N[C@@H](Cc1ccccc1)C(=O)N1CCC(OCOC)CC1)C(=O)N[C@@H](CC1CCCCC1)[C@@H](O)C[C@H](C(=O)NCCN1CCOCC1)C(C)C 50

----------
# test-target: Renin (Canis familiaris)
# test-description: Tested in vitro for its ability to inhibit the dog plasma renin
parameter: IC50 (µM)
Numbers only here, please. The scale is µM.

Read off the recorded IC50 for CCCC[C@H](N[C@@H](Cc1ccccc1)C(=O)N1CCC(OCOC)CC1)C(=O)N[C@@H](CC1CCCCC1)[C@@H](O)C[C@H](C(=O)NCCC[N+]1([O-])CCOCC1)C(C)C 0.019
